protocol-description: Plasma levels after intravenous injection in the dog
Parameters: species or system chien
test-parameters: in vivo, chien, i.v., 15 mg/kg en équivalent acide oxolinique, 6 h, read-out: Taux plasmatiques
observed-property: concentration at 6 h (ng/mL)

In [3]: df
Out[3]:
                                   compound     observed_property  measure_unit  value_measured
0  CCn1cc(C(=O)O)c(=O)c2cc3c(cc21)OCO3 [Acide oxolinique, acide oxolinique, reference compound]  concentration at 6 h         ng/mL            8890

---

protocol-description: Plasma levels after intravenous injection in the dog
Design: species or system chien
test-parameters: in vivo, chien, i.v., 15 mg/kg en équivalent acide oxolinique, 10 h, read-out: Taux plasmatiques
observed-property: concentration at 10 h (ng/mL)

>>> print(df.to_string())
                                   compound      observed_property  value_measured
0  CCn1cc(C(=O)O)c(=O)c2cc3c(cc21)OCO3 [Acide oxolinique, acide oxolinique, reference compound]  concentration at 10 h            3590
